# TARGET: Cysteinyl leukotriene receptor 1 (Cavia porcellus) (UniProt Q2NNR5)
# Sequence (whole entry): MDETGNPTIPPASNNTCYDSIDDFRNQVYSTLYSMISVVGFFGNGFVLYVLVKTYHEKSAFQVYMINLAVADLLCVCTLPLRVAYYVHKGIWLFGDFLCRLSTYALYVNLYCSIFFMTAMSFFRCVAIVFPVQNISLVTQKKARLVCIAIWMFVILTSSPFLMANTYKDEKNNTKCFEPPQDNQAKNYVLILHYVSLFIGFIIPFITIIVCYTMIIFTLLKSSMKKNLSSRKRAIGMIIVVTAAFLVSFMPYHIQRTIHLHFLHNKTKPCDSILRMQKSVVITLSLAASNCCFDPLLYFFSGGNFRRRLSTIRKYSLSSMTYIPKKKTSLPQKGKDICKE
# PROTOCOL_TEXT: In vitro inhibition of [3H]LTD4 binding to CysLT1 receptors on guinea pig lung membranes.
# Assay type: tissue-based
# Set-up: concentration or dose not given beside the values
# MEASUREMENT_CONDITIONS: concentration not given here
MEASURED_PARAMETER: inhibition (%)

{"STRUCTURE": "O=C(O)c1ccc2oc(-c3ccc(/C=C/c4ccc5ccccc5n4)cc3)cc(=O)c2c1", "TARGET": "Cysteinyl leukotriene receptor 1 (Cavia porcellus) (UniProt Q2NNR5)", "MEASURED_PARAMETER": "inhibition", "ENDPOINT_VALUE": 28}
{"STRUCTURE": "CCOC(=O)c1cccc2c(=O)cc(-c3cccc(OCc4ccc5ccccc5n4)c3)oc12", "TARGET": "Cysteinyl leukotriene receptor 1 (Cavia porcellus) (UniProt Q2NNR5)", "MEASURED_PARAMETER": "inhibition", "ENDPOINT_VALUE": 38}
{"STRUCTURE": "O=C(O)c1ccc2oc(-c3ccc(OCc4ccccc4)cc3)cc(=O)c2c1", "TARGET": "Cysteinyl leukotriene receptor 1 (Cavia porcellus) (UniProt Q2NNR5)", "MEASURED_PARAMETER": "inhibition", "ENDPOINT_VALUE": 23}
{"STRUCTURE": "O=C(O)c1cccc2c(=O)cc(-c3ccc(OCc4ccc5ccccc5c4)cc3)oc12", "TARGET": "Cysteinyl leukotriene receptor 1 (Cavia porcellus) (UniProt Q2NNR5)", "MEASURED_PARAMETER": "inhibition", "ENDPOINT_VALUE": 32}

I: CCOC(=O)c1cccc2c(=O)cc(-c3ccc(OCc4ccc5ccccc5n4)cc3)oc12
II: N#Cc1cc(Cl)cc2c(=O)cc(-c3cccc(/C=C/c4ccc5ccccc5n4)c3)oc12
III: O=C(O)c1cccc2c(=O)cc(-c3cccc(OCc4ccccc4)c3)oc12
**Query** Place the items in sequence of falling inhibition. As an answer, provide the labels arranged in the order called for.
**Result** III, I, II
